Peptide text beside a SMILES is read from it.
The reader will find Ki measurements below, all made with PSD-95 PDZ2 (Homo sapiens, UniProt P78352).
Sequence (P78352 155-249): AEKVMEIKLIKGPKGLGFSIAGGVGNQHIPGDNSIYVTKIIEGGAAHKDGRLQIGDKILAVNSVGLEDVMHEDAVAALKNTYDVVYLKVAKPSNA
Give the number; µM is assumed, so skip it.

// query Ki value for entry CC[C@H](C)[C@H](NC(=O)[C@H](CCCNC(=N)N)NC(=O)[C@H](CCCNC(=N)N)NC(=O)[C@H](CC(=O)O)NC(=O)[C@H](CC(=O)O)NC(=O)[C@@H](N)Cc1ccc(O)cc1)C(=O)N1CCC[C@H]1C(=O)N[C@@H](CC(C)C)C(=O)N[C@H](C(=O)N[C@@H](CCCNC(=N)N)C(=O)N[C@H](C(=O)N[C@H](C(=O)N[C@H](C(=O)N[C@@H](Cc1ccccc1)C(=O)O)[C@@H](C)O)[C@@H](C)O)[C@@H](C)O)[C@@H](C)O [SSTR4 Human] (H-YDDRRIPLTRTTTF-OH)
450

Which Ki reading was recorded for the compound CC[C@H](C)[C@H](NC(=O)[C@H](CCCNC(=N)N)NC(=O)[C@H](CO)NC(=O)[C@@H](NC(=O)[C@H](CS)NC(=O)[C@@H](NC(=O)CNC(=O)[C@H](CCCNC(=N)N)NC(=O)[C@H](CC(=O)O)NC(=O)[C@H](CC(=O)O)NC(=O)[C@@H](N)Cc1ccc(O)cc1)[C@@H](C)O)[C@@H](C)O)C(=O)N[C@H](C(=O)N[C@H](C(=O)N[C@@H](CC(C)C)C(=O)O)[C@@H](C)O)[C@@H](C)O [SSTR1 Human] (H-YDDRGTCTSRITTL-OH) ?
28

Can you look up the measured Ki of CC[C@H](C)[C@H](NC(=O)[C@H](CCCNC(=N)N)NC(=O)[C@H](CO)NC(=O)[C@H](C)NC(=O)[C@H](CS)NC(=O)[C@@H](NC(=O)CNC(=O)[C@H](CCCNC(=N)N)NC(=O)[C@H](CC(=O)O)NC(=O)[C@H](CC(=O)O)NC(=O)[C@@H](N)Cc1ccc(O)cc1)[C@@H](C)O)C(=O)N[C@@H](CO)C(=O)N[C@H](C(=O)N[C@@H](CC(C)C)C(=O)O)[C@@H](C)O [SSTR1 Mouse] (H-YDDRGTCASRISTL-OH) for me?
90

# Ki lookup, item CC[C@H](C)[C@H](NC(=O)[C@H](CC(=O)O)NC(=O)[C@H](CCC(N)=O)NC(=O)[C@H](CCCNC(=N)N)NC(=O)[C@H](CC(=O)O)NC(=O)[C@H](CC(=O)O)NC(=O)[C@@H](N)Cc1ccc(O)cc1)C(=O)N[C@H](C(=O)N[C@@H](CC(=O)O)C(=O)N[C@@H](CC(C)C)C(=O)N[C@@H](CCC(N)=O)C(=O)N[C@H](C(=O)N[C@@H](CCC(=O)O)C(=O)N[C@H](C(=O)O)C(C)C)[C@@H](C)O)[C@@H](C)CC [BAI1] (H-YDDRQDIIDLQTEV-OH)
29

Reported Ki, compound CC(C)C[C@H](NC(=O)[C@@H](NC(=O)[C@@H](NC(=O)[C@H](CO)NC(=O)[C@@H](NC(=O)[C@H](Cc1c[nH]cn1)NC(=O)CNC(=O)[C@H](CO)NC(=O)[C@H](CO)NC(=O)[C@H](CO)NC(=O)[C@H](CCCNC(=N)N)NC(=O)[C@H](CC(=O)O)NC(=O)[C@H](CC(=O)O)NC(=O)[C@@H](N)Cc1ccc(O)cc1)[C@@H](C)O)[C@@H](C)O)[C@@H](C)O)C(=O)O [CXCR2] (H-YDDRSSSGHTSTTL-OH) : ____
370

Given CC[C@H](C)[C@H](NC(=O)[C@H](CO)NC(=O)[C@@H](NC(=O)[C@H](CCC(N)=O)NC(=O)[C@H](CC(C)C)NC(=O)[C@H](CC(=O)O)NC(=O)CNC(=O)[C@H](CC(N)=O)NC(=O)[C@H](CC(C)C)NC(=O)[C@H](CC(C)C)NC(=O)[C@H](CCCNC(=N)N)NC(=O)[C@H](CC(=O)O)NC(=O)[C@H](CC(=O)O)NC(=O)[C@@H](N)Cc1ccc(O)cc1)[C@@H](C)O)C(=O)O [SSTR2A] (H-YDDRLLNGDLQTSI-OH) , state its recorded Ki.
230

What does the record list as Ki for CC(C)[C@H](NC(=O)[C@H](CCC(N)=O)NC(=O)[C@H](CCCNC(=N)N)NC(=O)[C@H](CC(=O)O)NC(=O)[C@H](CC(=O)O)NC(=O)[C@@H](N)Cc1ccc(O)cc1)C(=O)N1CCC[C@H]1C(=O)N[C@@H](Cc1ccccc1)C(=O)N[C@H](C(=O)N[C@@H](CCCCN)C(=O)N[C@H](C(=O)N[C@H](C(=O)N[C@H](C(=O)N[C@@H](Cc1ccccc1)C(=O)O)[C@@H](C)O)[C@@H](C)O)[C@@H](C)O)[C@@H](C)O [SSTR4 Mouse] (H-YDDRQVPFTKTTTF-OH) ?
420

Fill in the blank: the reported Ki of CC(C)[C@H](NC(=O)[C@H](CS)NC(=O)[C@H](CO)NC(=O)[C@@H](NC(=O)[C@H](CCCCN)NC(=O)[C@H](CCC(=O)O)NC(=O)[C@H](CC(N)=O)NC(=O)[C@@H](NC(=O)CNC(=O)[C@H](CC(=O)O)NC(=O)[C@H](CCCNC(=N)N)NC(=O)[C@H](CC(=O)O)NC(=O)[C@H](CC(=O)O)NC(=O)[C@@H](N)Cc1ccc(O)cc1)C(C)C)C(C)C)C(=O)O [5-HTR2A] (H-YDDRDGVNEKVSCV-OH) is ____.
46

What Ki value was documented for this compound, CC[C@H](C)[C@H](NC(=O)[C@H](CCCNC(=N)N)NC(=O)[C@H](CCC(=O)O)NC(=O)[C@H](CO)NC(=O)[C@@H](NC(=O)[C@@H](NC(=O)[C@H](CO)NC(=O)[C@H](CCCNC(=N)N)NC(=O)[C@H](CC(=O)O)NC(=O)[C@H](CC(=O)O)NC(=O)[C@@H](N)Cc1ccc(O)cc1)C(C)C)C(C)C)C(=O)N[C@@H](CO)C(=O)N[C@@H](CO)C(=O)N[C@H](C(=O)O)C(C)C [5-HTR2C] (H-YDDRSVVSERISSV-OH) ?
26
